# Study system: T1, Human CD3eg linker (human)
# T1 construct: Single-chain construct; also called recombinant human CD3
# T1 chain: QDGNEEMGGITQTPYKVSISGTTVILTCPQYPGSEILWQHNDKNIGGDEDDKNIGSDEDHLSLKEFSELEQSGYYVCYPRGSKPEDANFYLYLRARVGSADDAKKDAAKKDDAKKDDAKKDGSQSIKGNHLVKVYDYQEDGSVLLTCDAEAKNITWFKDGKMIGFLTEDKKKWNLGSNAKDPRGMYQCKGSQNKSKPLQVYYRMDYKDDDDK
# Experiment summary: SPR; fold vs parent H183/L072
Endpoint label: fold change of affinity (fold)
Please reply with the bare figure in fold and do not write the unit itself.

# count of solved cases: 4
H183/L072 VL E27aW (antibody, name in Kabat numbering, V domains shown) VH: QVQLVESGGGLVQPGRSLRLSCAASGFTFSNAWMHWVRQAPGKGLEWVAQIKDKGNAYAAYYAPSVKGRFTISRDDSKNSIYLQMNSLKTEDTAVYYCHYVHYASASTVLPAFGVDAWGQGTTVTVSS VL: DIVMTQSPLSLPVTPGEPASISCQASQWLVHMNRNTYLHWYQQKPGQAPRLLIYKVSNRFPGVPDRFSGSGSGTDFTLKISRVEAEDVGVYYCAQGTSVPFTFGQGTKLEIK ... 1.1
H183/L072 VL L27bI (antibody, name in Kabat numbering, V domains shown) VH: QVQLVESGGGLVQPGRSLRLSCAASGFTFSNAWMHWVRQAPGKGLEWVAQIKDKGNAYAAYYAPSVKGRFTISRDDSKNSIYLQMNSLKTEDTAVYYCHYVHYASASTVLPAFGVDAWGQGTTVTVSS VL: DIVMTQSPLSLPVTPGEPASISCQASQEIVHMNRNTYLHWYQQKPGQAPRLLIYKVSNRFPGVPDRFSGSGSGTDFTLKISRVEAEDVGVYYCAQGTSVPFTFGQGTKLEIK ... 0.5
H183/L072 VL E27aK (antibody, name in Kabat numbering, V domains shown) VH: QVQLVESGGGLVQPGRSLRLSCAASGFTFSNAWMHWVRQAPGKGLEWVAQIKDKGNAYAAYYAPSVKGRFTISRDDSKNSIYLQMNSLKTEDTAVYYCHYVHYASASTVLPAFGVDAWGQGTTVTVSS VL: DIVMTQSPLSLPVTPGEPASISCQASQKLVHMNRNTYLHWYQQKPGQAPRLLIYKVSNRFPGVPDRFSGSGSGTDFTLKISRVEAEDVGVYYCAQGTSVPFTFGQGTKLEIK ... 1.1
H183/L072 VL V51S (antibody, name in Kabat numbering, V domains shown) VH: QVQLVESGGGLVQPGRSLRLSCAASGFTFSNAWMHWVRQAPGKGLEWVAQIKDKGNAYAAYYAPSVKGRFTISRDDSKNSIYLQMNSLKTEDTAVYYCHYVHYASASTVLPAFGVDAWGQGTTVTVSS VL: DIVMTQSPLSLPVTPGEPASISCQASQELVHMNRNTYLHWYQQKPGQAPRLLIYKSSNRFPGVPDRFSGSGSGTDFTLKISRVEAEDVGVYYCAQGTSVPFTFGQGTKLEIK ... 0.3

Moving on to the next binder.
So for H183/L072 VL T31L (antibody, name in Kabat numbering, V domains shown) VH: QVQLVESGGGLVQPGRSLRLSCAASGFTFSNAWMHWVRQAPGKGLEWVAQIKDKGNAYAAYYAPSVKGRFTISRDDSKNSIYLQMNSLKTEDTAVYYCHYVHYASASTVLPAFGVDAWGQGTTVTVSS VL: DIVMTQSPLSLPVTPGEPASISCQASQELVHMNRNLYLHWYQQKPGQAPRLLIYKVSNRFPGVPDRFSGSGSGTDFTLKISRVEAEDVGVYYCAQGTSVPFTFGQGTKLEIK , the logged fold change of affinity turned out to be 0
